Molecular target: Tyrosine-protein phosphatase non-receptor type 2 (Homo sapiens) (UniProt P17706)
Test: Inhibition of recombinant human TCPTP (1 to 314 residues) expressed in baculovirus-insect cells at 100 uM relative to control
Experimental Endpoint: inhibition

- Line Notation: "O=C1c2ccccc2C(=O)c2c1cc(O)c(CO[C@@H]1O[C@H](CO)[C@@H](O)[C@H](O)[C@H]1O)c2O"
  Result: "< 20%"
- Line Notation: "COc1ccc2c(c1)C(=O)c1cc(O[C@@H]3O[C@H](CO[C@@H]4OC[C@@H](O)[C@H](O)[C@H]4O)[C@@H](O)[C@H](O)[C@H]3O)c(CO)c(O)c1C2=O"
  Result: "< 20%"
- Line Notation: "COc1ccc2c(c1)C(=O)c1cc(O[C@@H]3O[C@H](CO)[C@@H](O)[C@H](O)[C@H]3O)c(CO)c(O)c1C2=O"
  Result: "< 20%"
- Line Notation: "COc1ccc2c(c1O)C(=O)c1cc(O[C@@H]3O[C@H](CO[C@@H]4OC[C@@H](O)[C@H](O)[C@H]4O)[C@@H](O)[C@H](O)[C@H]3O)c(C)c(O)c1C2=O"
  Result: "40%"

* * *

Target: UniProt:P18031
Test: Mixed type inhibition of N-terminal His-tagged recombinant human PTP1B expressed in Escherichia coli using pNPP as substrate assessed as inhibition constant preincubated for 15 mins followed by substrate addition and measured after 15 mins by Dixon plot analysis
Experimental Endpoint: Ki (nM)

- Line Notation: "Cc1c(O[C@@H]2O[C@H](CO[C@@H]3OC[C@@H](O)[C@H](O)[C@H]3O)[C@@H](O)[C@H](O)[C@H]2O)cc2c(c1O)C(=O)c1ccc(O)c(O)c1C2=O"
  Number: 1210
- Line Notation: "O=C1c2ccccc2C(=O)c2c1cc(O)c(CO[C@@H]1O[C@H](CO)[C@@H](O)[C@H](O)[C@H]1O)c2O"
  Number: 3020

* * *

Entries annotated with measured IC50
Molecular target: Tyrosine-protein phosphatase non-receptor type 1 (Homo sapiens)
Sequence (P18031 whole entry): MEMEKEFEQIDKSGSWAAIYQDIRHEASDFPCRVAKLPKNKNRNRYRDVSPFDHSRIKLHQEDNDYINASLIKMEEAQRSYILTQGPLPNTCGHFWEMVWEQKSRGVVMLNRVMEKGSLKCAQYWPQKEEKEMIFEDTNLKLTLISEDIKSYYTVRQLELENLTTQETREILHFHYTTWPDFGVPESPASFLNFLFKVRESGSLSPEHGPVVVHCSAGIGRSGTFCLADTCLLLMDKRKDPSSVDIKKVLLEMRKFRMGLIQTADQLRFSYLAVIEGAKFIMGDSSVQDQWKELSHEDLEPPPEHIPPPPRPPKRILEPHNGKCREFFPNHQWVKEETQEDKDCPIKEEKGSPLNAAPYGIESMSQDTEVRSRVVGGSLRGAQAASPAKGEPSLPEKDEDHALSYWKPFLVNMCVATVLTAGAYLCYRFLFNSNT
Assay: Inhibition of N-terminal His-tagged recombinant human PTP1B expressed in Escherichia coli

- Line Notation: "COc1ccc2c(c1O)C(=O)c1cc(O[C@@H]3O[C@H](CO[C@@H]4OC[C@@H](O)[C@H](O)[C@H]4O)[C@@H](O)[C@H](O)[C@H]3O)c(C)c(O)c1C2=O"
  Experimental Target: "Tyrosine-protein phosphatase non-receptor type 1 (Homo sapiens)"
  IC50 / µM: 7.28
- Line Notation: "COc1ccc2c(c1)C(=O)c1cc(O[C@@H]3O[C@H](CO[C@@H]4OC[C@@H](O)[C@H](O)[C@H]4O)[C@@H](O)[C@H](O)[C@H]3O)c(C)c(O)c1C2=O"
  Experimental Target: "Tyrosine-protein phosphatase non-receptor type 1 (Homo sapiens)"
  IC50 / µM: 9.04
- Line Notation: "COc1ccc2c(c1)C(=O)c1cc(O[C@@H]3O[C@H](CO)[C@@H](O)[C@H](O)[C@H]3O)c(CO)c(O)c1C2=O"
  Experimental Target: "Tyrosine-protein phosphatase non-receptor type 1 (Homo sapiens)"
  IC50 / µM: 1.56

* * *

Here, each record is paired with measured pIC50 data.
Target: Tyrosine-protein phosphatase non-receptor type 1 (Homo sapiens, UniProt P18031)
Assay: Inhibition of N-terminal His-tagged recombinant human PTP1B expressed in Escherichia coli
pIC50: −log10 of the molar value.
Experimental Endpoint: pIC50

- Line Notation: "COc1ccc2c(c1)C(=O)c1cc(O[C@@H]3O[C@H](CO[C@@H]4OC[C@@H](O)[C@H](O)[C@H]4O)[C@@H](O)[C@H](O)[C@H]3O)c(CO)c(O)c1C2=O"
  Number: 4.95
- Line Notation: "COc1ccc2c(c1O)C(=O)c1cc(O[C@@H]3O[C@H](CO[C@@H]4OC[C@@H](O)[C@H](O)[C@H]4O)[C@@H](O)[C@H](O)[C@H]3O)c(CO)c(O)c1C2=O"
  Number: 5.45
- Line Notation: "O=C1c2ccccc2C(=O)c2c1cc(O)c(CO[C@@H]1O[C@H](CO)[C@@H](O)[C@H](O)[C@H]1O)c2O"
  Number: 5.41
- Line Notation: "Cc1c(O[C@@H]2O[C@H](CO[C@@H]3OC[C@@H](O)[C@H](O)[C@H]3O)[C@@H](O)[C@H](O)[C@H]2O)cc2c(c1O)C(=O)c1ccccc1C2=O"
  Number: 4.86
- Line Notation: "Cc1c(O[C@@H]2O[C@H](CO[C@@H]3OC[C@@H](O)[C@H](O)[C@H]3O)[C@@H](O)[C@H](O)[C@H]2O)cc2c(c1O)C(=O)c1ccc(O)c(O)c1C2=O"
  Number: 5.98
- Line Notation: "COc1ccc2c(c1)C(=O)c1cc(O)c(CO[C@@H]3O[C@H](CO[C@@H]4OC[C@@H](O)[C@H](O)[C@H]4O)[C@@H](O)[C@H](O)[C@H]3O)c(O)c1C2=O"
  Number: 5.12
- Line Notation: "COc1ccc2c(c1O)C(=O)c1cc(O[C@@H]3O[C@H](CO)[C@@H](O)[C@H](O)[C@H]3O)c(CO)c(O)c1C2=O"
  Number: 5.52
- Line Notation: "O=C1c2ccccc2C(=O)c2c1cc(O[C@@H]1O[C@H](CO)[C@@H](O)[C@H](O)[C@H]1O)c(CO)c2O"
  Number: 4.97

* * *

Target: Tyrosine-protein phosphatase non-receptor type 2 (Homo sapiens)
Sequence (P17706 whole entry, the tested form may be a part): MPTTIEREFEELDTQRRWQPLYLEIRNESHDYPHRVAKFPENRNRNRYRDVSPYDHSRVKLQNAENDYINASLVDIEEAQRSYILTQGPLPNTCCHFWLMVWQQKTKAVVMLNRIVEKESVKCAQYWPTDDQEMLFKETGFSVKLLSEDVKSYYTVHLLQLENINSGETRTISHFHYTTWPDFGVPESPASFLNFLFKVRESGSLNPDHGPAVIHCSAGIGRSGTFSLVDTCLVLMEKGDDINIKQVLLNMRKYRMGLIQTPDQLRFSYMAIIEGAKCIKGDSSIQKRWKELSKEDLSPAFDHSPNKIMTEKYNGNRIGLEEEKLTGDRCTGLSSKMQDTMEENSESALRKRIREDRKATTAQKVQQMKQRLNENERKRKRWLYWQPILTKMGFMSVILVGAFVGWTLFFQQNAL
Experiment: Inhibition of recombinant human TCPTP (1 to 314 residues) expressed in baculovirus-insect cells
pIC50: −log10 of the molar value.

- Line Notation: "COc1ccc2c(c1)C(=O)c1cc(O[C@@H]3O[C@H](CO)[C@@H](O)[C@H](O)[C@H]3O)c(CO)c(O)c1C2=O"
  pIC50: "< 4.00"
- Line Notation: "O=C1c2ccccc2C(=O)c2c1cc(O)c(CO[C@@H]1O[C@H](CO)[C@@H](O)[C@H](O)[C@H]1O)c2O"
  pIC50: "< 4.00"
- Line Notation: "Cc1c(O[C@@H]2O[C@H](CO[C@@H]3OC[C@@H](O)[C@H](O)[C@H]3O)[C@@H](O)[C@H](O)[C@H]2O)cc2c(c1O)C(=O)c1ccc(O)c(O)c1C2=O"
  pIC50: 4.11
- Line Notation: "COc1ccc2c(c1O)C(=O)c1cc(O[C@@H]3O[C@H](CO[C@@H]4OC[C@@H](O)[C@H](O)[C@H]4O)[C@@H](O)[C@H](O)[C@H]3O)c(C)c(O)c1C2=O"
  pIC50: "< 4.00"
- Line Notation: "COc1ccc2c(c1)C(=O)c1cc(O[C@@H]3O[C@H](CO[C@@H]4OC[C@@H](O)[C@H](O)[C@H]4O)[C@@H](O)[C@H](O)[C@H]3O)c(CO)c(O)c1C2=O"
  pIC50: "< 4.00"
